Recorded Reduced relative colony forming efficiency, expressed as % inhibition, MDA-MB-231 values for a group of substances are listed next.
- Test system: MDA-MB-231 breast cell adenocarcinoma
- assay-overview: Relative colony forming efficiency after antisense treatment (Table 13, FIG. 11, FIG. 12)
- Format: cell-based, human
- conditions: 0.2 μM antisense oligodeoxyribonucleotide phosphorothioate; MDA-MB-231 cells; averages of 2-8 determinations
- Description: Colony forming efficiency was determined as previously reported [Huang and Wright, 1994]. The cells were cultured for 24 hours at 37° C. in growth medium with 10% fetal bovine serum. […] The oligonucleotides being tested were added to cell cultures in the presence of 2.5 μg of DOTMA/DOPE (Lipofectin; Life Technologies, Inc.) for four hours. […] Surviving cells were visualized by methylene blue staining, and colonies were scored. […] Results were analyzed as percent of surviving cells compared to control cells. […]
Strand notation (5' to 3'): a small letter for the sugar, then the base; units joined by * are phosphorothioate-linked, units joined directly phosphodiester-linked; [ ] holds rarer units or linkages, { } end groups; capitals alone tell only the bases. d = 2'-deoxy (DNA)
Give just the numeric value; % need not be written.

GACACAAGGCATCGTTTCAA (antisense; DNA, all phosphorothioate, methylation of C not given here) [AS-II-784-20] :: 33.92
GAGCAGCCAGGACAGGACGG (antisense dG*dA*dG*dC*dA*dG*dC*dC*dA*dG*dG*dA*dC*dA*dG*dG*dA*dC*dG*dG) [AS-II-151-20] :: 41.64
AAAACCTTGCTAAAACCCAG (DNA, all phosphorothioate, methylation of C not given here) [AS-II-1197-20] :: 50.35

Prompt line: Fill blank: measured Reduced relative colony forming efficiency, expressed as % inhibition, MDA-MB-231 of the substance GACATCACTCCCATCCTCTG (DNA, all phosphorothioate, methylation of C not given here) [AS-II-1302-20] is ____.
Response line: 92.2

Prompt line: Please answer likewise for CsCCCsTCACsTCCsAGCsAGCsCTsT (antisense dC*dCdCdC*dTdCdAdC*dTdCdC*dAdGdC*dAdGdC*dCdT*dT) [AS-II-109-20]
Response line: 22.38

Prompt line: Can you handle AAACGGCTTCTCACACATAT (antisense; DNA, all phosphorothioate, methylation of C not given here) [AS-II-2151-20] next?
Response line: 95.14

Prompt line: Moving on to the next substance: GsCGsAAGsCAGsAGCsGAGsCAGCsC (antisense dG*dCdG*dAdAdG*dCdAdG*dAdGdC*dGdAdG*dCdAdGdC*dC) [AS-II-163-20]
Response line: 22.73

Prompt line: Continue with CGGGTCCGTGATGGGCGCGA (dC*dG*dG*dG*dT*dC*dC*dG*dT*dG*dA*dT*dG*dG*dG*dC*dG*dC*dG*dA; antisense) [AS-II-217-20]
Response line: 52.7

Prompt line: Next substance: GGCATCAGTCCTCGTTTCTT (antisense; DNA, all phosphorothioate, methylation of C not given here) [AS-II-933-20]
Response line: 64.89

Prompt line: One more substance: GGAAGATGACAAAGCGGCGG (dG*dG*dA*dA*dG*dA*dT*dG*dA*dC*dA*dA*dA*dG*dC*dG*dG*dC*dG*dG; antisense) [AS-II-425-20]
Response line: 89.75

Prompt line: How about ATCGCCGCCGTG (DNA, all phosphorothioate, methylation of C not given here) [AS-II-1775-12] ?
Response line: 48.6

Prompt line: And then TTAGAAGTCAGCATCCAAGG (DNA, all phosphorothioate, methylation of C not given here) [AS-II-1345-20] , what is it?
Response line: 94.11
